B1: Azoarcus group I ribozyme (parent)
chain: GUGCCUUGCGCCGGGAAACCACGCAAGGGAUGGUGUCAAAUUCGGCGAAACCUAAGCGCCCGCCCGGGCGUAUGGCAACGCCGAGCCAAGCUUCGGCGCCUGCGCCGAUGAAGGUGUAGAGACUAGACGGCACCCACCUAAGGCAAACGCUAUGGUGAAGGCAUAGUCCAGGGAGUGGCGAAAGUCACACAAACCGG

Variants of: B1
Test: reverse-splicing fitness (ratio to wild type); higher = more active; in vitro selection; Mg2+ level not given
measurement.kind: reverse-splicing fitness
# respond with the number and nothing more

// below: answered variants
1) C82A A111U C150A U176G
0.00995
2) C82A A145C C150G C169U U176G
0.00534
3) C82G A120U A145U C150U U176G
0.0126

Exercise: Consider the variant C82A A111C A145G C150G C169A U176C and give its measured reverse-splicing fitness.
Solution: 0.0134

Exercise: Consider the variant C82A A111U A120G A145G C150G C169G U176C and give its measured reverse-splicing fitness.
Solution: 0.0107

Exercise: Consider the variant C82U A111C A120G C169A U176C and give its measured reverse-splicing fitness.
Solution: 0.019

Exercise: Consider the variant C82G A120C C150G C169U and give its measured reverse-splicing fitness.
Solution: 0.0121

Exercise: Consider the variant C82U A120G A145U C150G C169U and give its measured reverse-splicing fitness.
Solution: 0.00878

Exercise: Consider the variant C82U A120U A145G C150A C169U U176C and give its measured reverse-splicing fitness.
Solution: 0.00329

Exercise: Consider the variant C82G A111U C150A C169A U176G and give its measured reverse-splicing fitness.
Solution: 0.00814

Exercise: Consider the variant A111U U176C and give its measured reverse-splicing fitness.
Solution: 0.793

Exercise: Consider the variant A111G A120C U176G and give its measured reverse-splicing fitness.
Solution: 0.125

Exercise: Consider the variant C82G A111G A120U A145G C150U and give its measured reverse-splicing fitness.
Solution: 0.0498

Exercise: Consider the variant C82G A111C A145C C150G C169G U176G and give its measured reverse-splicing fitness.
Solution: 0.00664

Exercise: Consider the variant C82A A120C A145G C169U U176A and give its measured reverse-splicing fitness.
Solution: 0.0173

Exercise: Consider the variant C82G A120G C169U and give its measured reverse-splicing fitness.
Solution: 0.0237

Exercise: Consider the variant C82A U176C and give its measured reverse-splicing fitness.
Solution: 0.484

Exercise: Consider the variant C82A A111U A120U A145U C150A C169A U176G and give its measured reverse-splicing fitness.
Solution: 0.00212

The reported measurements were obtained from the RNAGym collection of RNA variant scans (doi:10.1093/molbev/msab373).
